system: SEM cells; experiment: cell viability relative to DMSO control; higher = less cytotoxic; settings: RPMI 5 mM glucose + 10% FBS; 48 h; 0.569 µM
For each of the compounds below, state its cell viability.
Hi! Could you send only the number? It should be in %, unit omitted.

Query block: What does the data say about its cell viability? Entry: `CN1CCCN=C1/C=C/c1cccs1.O=C(O)c1cc2ccccc2c(Cc2c(O)c(C(=O)O)cc3ccccc23)c1O`
Result block: 129

Query block: Which cell viability is reported for this compound? `CN[C@@H]1[C@H](O)[C@H](NC)[C@H]2O[C@@]3(O)C(=O)C[C@@H](C)O[C@H]3O[C@@H]2[C@H]1O`
Result block: 123

Query block: Value lookup for cell viability; key = `CN1\C(=C(\O)C2=CC=CC=C2[S+]1([O-])=O)C(=O)NC3=NC=C(C)S3`
Result block: 103

Query block: // lookup cell viability for `OC1=CC2=C(C(=C1)O)C(=O)\C=C(/O2)C3=CC=CC=C3`
Result block: 92

====

test system: NOMO1; assay: AUC of viability dose-response curve (% viability x log10 dose units); higher = less sensitive; conditions: RPMI 5 mM glucose + 10% FBS; 48 h
Assign AUC of viability dose-response curve to each entry below.
Form: value (number only, do not type unit).

Query block: Hi! What's the reported AUC of viability dose-response curve for `C[C@@H]1CC[C@H]2[C@@H](C)C(=O)O[C@@H]3O[C@@]4(C)CC[C@@H]1[C@]32OO4` on NOMO1?
Result block: 419

Query block: Kindly state the measured AUC of viability dose-response curve obtained for `C=CC[C@@H]1/C=C(\C)C[C@H](C)C[C@H](OC)[C@H]2O[C@@](O)(C(=O)C(=O)N3CCCC[C@H]3C(=O)O[C@H](/C(C)=C/[C@@H]3CC[C@@H](O)[C@H](OC)C3)[C@H](C)[C@@H](O)CC1=O)[C@H](C)C[C@@H]2OC` with NOMO1.
Result block: 453

Query block: Requested read-out AUC of viability dose-response curve, target or system NOMO1, entry CCC(C)(Oc1ccc(C2(c3ccc(OC(C)(CC)C(=O)O)cc3)CCCCC2)cc1)C(=O)O (configuration not stated)
Result block: 456

Query block: Quick check: AUC of viability dose-response curve on NOMO1, item `CN[C@@H]1[C@H](O)[C@H](NC)[C@H]2O[C@@]3(O)C(=O)C[C@@H](C)O[C@H]3O[C@@H]2[C@H]1O` ?
Result block: 424

Query block: Under NOMO1: AUC of viability dose-response curve value of OC[C@H]1OCC(O1)[N@@]2C=CC(N)=NC2=O (some centres not stated) ?
Result block: 463

Query block: Entry `C=C[C@H]1CN2CC[C@H]1C[C@H]2[C@H](O)c1ccnc2ccc(OC)cc12` , system NOMO1: what AUC of viability dose-response curve was measured?
Result block: 443

Query block: Return AUC of viability dose-response curve measured with NOMO1 given this compound: `O=C(Nc1c(Cl)cncc1Cl)c1ccc(OC(F)F)c(OCC2CC2)c1`
Result block: 465

Query block: Recorded AUC of viability dose-response curve for `CN(NC(=O)CC(=O)NN(C)C(=S)c1ccccc1)C(=S)c1ccccc1` with NOMO1, please?
Result block: 197

Query block: Notebook: pull reported AUC of viability dose-response curve for NOMO1, entry `CNc1nccc(-c2cccnc2Oc2cc(C(=O)Nc3cccc(C(F)(F)F)c3)ccc2C)n1`
Result block: 458

Query block: Provide value of AUC of viability dose-response curve for this record tested with NOMO1: `S=P(N1CC1)(N1CC1)N1CC1`
Result block: 458

Query block: Recall the recorded AUC of viability dose-response curve for `CN(C)[C@H]\1[C@@H]2C[C@H]3C(=C(O)\[C@]2(O)C(=O)\C(=C1O)C(N)=O)/C(=O)C4=C(O)C=CC=C4[C@@]3(C)O` with NOMO1 and state it.
Result block: 443

Query block: Reported AUC of viability dose-response curve for NOMO1, given `Cn1c(CNc2ccc(C(=N)N)cc2)nc2cc(C(=O)N(CCC(=O)O)c3ccccn3)ccc21` ?
Result block: 443

Query block: Request - read-out AUC of viability dose-response curve | tested on NOMO1 | compound `NC/1=N/C2=C([NH]C=N2)C(=S)N1`
Result block: 451

Query block: Return AUC of viability dose-response curve measured with NOMO1 given this compound: `CN1CCN(CC1)C2=C3OCN(C)N4\C=C(C(O)=O)/C(=O)C(=C34)C=C2F`
Result block: 450

Query block: Please state recorded AUC of viability dose-response curve (tested on NOMO1) of `Cc1cnc(-c2cc(N3CCN(C(=O)CC[S+](C)(=O)[O-])CC3)ncc2Cl)c(C)c1`
Result block: 470

Query block: I'm curious: which AUC of viability dose-response curve was measured for `Cc1cc2c(F)c(Oc3ncnn4cc(OC[C@@H](C)O)c(C)c34)ccc2[nH]1` tested on NOMO1?
Result block: 453

Query block: Param readout = AUC of viability dose-response curve; param system = NOMO1; param query = `Nc1ncnc2c1c(-c1cnc3[nH]ccc3c1)nn2C1CCCC1` ; response: value
Result block: 388

====

system: NOMO1; assay: AUC of viability dose-response curve (% viability x log10 dose units); higher = less sensitive; conditions: RPMI 5 mM glucose + 10% dialyzed FBS; 48 h
measurement.label: AUC of viability dose-response curve
Could you keep your reply to the number by itself?

Query block: What value of AUC of viability dose-response curve has been recorded for this entry: `CN1CCN(CC1)C2=C3OCN(C)N4\C=C(C(O)=O)/C(=O)C(=C34)C=C2F`
Result block: 465

Query block: What AUC of viability dose-response curve value was documented for this compound, `C[C@@H]1CC[C@H]2[C@@H](C)C(=O)O[C@@H]3O[C@@]4(C)CC[C@@H]1[C@]32OO4` ?
Result block: 451

Query block: Item `CCC(=O)NCC[C@@H]1CCc2ccc3c(c21)CCO3` has what recorded AUC of viability dose-response curve?
Result block: 449

Query block: Given `N=C(NCCCCCCNC(=N)NC(=N)Nc1ccc(Cl)cc1)NC(=N)Nc1ccc(Cl)cc1` , state its recorded AUC of viability dose-response curve.
Result block: 440

Query block: Record request: AUC of viability dose-response curve value, item `C[C@@]12C[C@@]3(O)O[C@@H](O1)[C@]1(COC(=O)c4ccccc4)[C@H]3C[C@@]12O[C@@H]1O[C@H](CO)[C@@H](O)[C@H](O)[C@H]1O`
Result block: 463

Query block: Entry C[N]1C=C(C2=C1C=CC=C2)\C3=C(\C(=O)NC3=O)C4=C5CC(CN)CC[N]5C6=C4C=CC=C6 (stereo not given) : reported AUC of viability dose-response curve = ?
Result block: 460

Query block: Form field: reported AUC of viability dose-response curve of `NC/1=N/[C@]2(COC[C@H]2CS1)C3=CC(=CC=C3F)NC(=O)C4=NC=C(F)C=C4`
Result block: 313

Query block: AUC of viability dose-response curve lookup needed for `C=CC(=O)N1CCC[C@@H](n2nc(-c3ccc(Oc4ccccc4)cc3)c3c(N)ncnc32)C1` , thanks.
Result block: 467

Query block: I am curious: what AUC of viability dose-response curve value has been reported for `CN(C)C1=CC=C(C=C1)C(C2=CC=C(C=C2)N(C)C)=C/3\C=C/C(/C=C3)=[N+](C)C` ?
Result block: 234

Query block: Requested read-out: AUC of viability dose-response curve. Entry: `CC(=O)N[C@H]1[C@H](O[C@@H]2c3ccc(c(Cl)c3)Oc3cc4cc(c3O[C@@H]3O[C@H](CO)[C@@H](O)[C@H](O)[C@H]3NC(=O)CCCCCCCC(C)C)Oc3ccc(cc3Cl)C[C@H]3NC(=O)[C@H](N)c5ccc(O)c(c5)Oc5cc(O)cc(c5)[C@H](NC3=O)C(=O)N[C@H]4C(=O)N[C@H]3C(=O)N[C@@H]2C(=O)N[C@@H](C(=O)O)c2cc(O)cc(O[C@H]4O[C@H](CO)[C@@H](O)[C@H](O)[C@@H]4O)c2-c2cc3ccc2O)O[C@H](CO)[C@@H](O)[C@@H]1O`
Result block: 448

Query block: Quick check: AUC of viability dose-response curve of `N[C@H](CSC(c1ccccc1)(c1ccccc1)c1ccccc1)C(=O)O` ?
Result block: 465

Query block: If you can, please state the reported AUC of viability dose-response curve value of `NC(=O)c1ccc2[nH]ccc2c1` .
Result block: 460

Query block: Form field: reported AUC of viability dose-response curve of `CC[C@@]1(O)C(=O)OC\C2=C1\C=C3/N(CC4=CC5=C(C=CC(=C5CN(C)C)O)N=C34)C2=O`
Result block: 324

Query block: Looking for the measured AUC of viability dose-response curve of C/C=C1\C2C=C(C)CC1(N)c1ccc(=O)[nH]c1C2 (stereo not given) , can you help?
Result block: 465

Query block: What AUC of viability dose-response curve value was documented for this compound, `Cc1cc(C(C)(C)C)c(O)c(C)c1CC1=NCCN1` ?
Result block: 422
